- System: U2OS
- protocol summary: Multiplex assay against U2OS
- Format: toxicity, cell-based
- condition set: human, 12 h, 1 µM, compound concentration 1 uM, replicate 2
# reported Population Hoechst High Intensity Objects (%); entries follow
measurement name: Population Hoechst High Intensity Objects (%)

# compound, unit label, measurement
data = [
    ("CNC(=O)Nc1ccc(-c2nc(N3CC4CCC(C3)O4)c3cnn(C4CCC5(CC4)OCCO5)c3n2)cc1", "%", 10),
    ("CN1CCN(Cc2ccc(Nc3ncc(Cl)c(Nc4ccccc4S(=O)(=O)N(C)C)n3)cc2)CC1", "%", 10),
    ("COc1cc(Nc2nccc(-c3cnn4nc(OC)ccc34)n2)cc(C(F)(F)F)c1", "%", 3),
    ("O=c1cc(N2CCOCC2)oc2c(-c3cccc4c3sc3ccccc34)cccc12", "%", 10),
    ("Cl.O=C(O)c1cc(-c2ccc(C3CCNCC3)cc2)c2ccc(-c3ccc(C(F)(F)F)cc3)cc2c1", "%", 5),
    ("Cc1nc(N2CC[C@H](O)C2)ncc1-c1cc(C(F)(F)F)cc2[nH]ncc12", "%", 11),
    ("COC(=O)C1=C(C)NC(C)=C(C(=O)OCCCN2CCC(c3ccccc3)(c3ccccc3)CC2)[C@H]1c1cccc([N+](=O)[O-])c1", "%", 9),
    ("Cc1ccc(C)c(Oc2ccncc2C(=O)N2CCN(C3CC3)c3ccccc32)c1", "%", 10),
    ("O=c1[nH]c2ccccc2n1C1CCN(Cc2ccc(-c3[nH]c4cc5ncnc5cc4nc3-c3ccccc3)cc2)CC1", "%", 8),
    ("CC(C)CC(=O)Nc1[nH]nc2c1CN(C(=O)C1CCN(C)CC1)C2(C)C", "%", 11),
    ("CCc1nn(CCCN2CCN(c3cccc(Cl)c3)CC2)c(=O)n1CCOc1ccccc1.Cl [NEFAZODONE HYDROCHLORIDE]", "%", 6),
    ("O=C(c1cc2c(cc1F)OC(c1ccc(F)cc1)(c1ccc(Cl)cc1Cl)O2)N1CCOCC1 (configuration not stated)", "%", 7),
    ("C=CC(=O)Nc1cccc(Sc2nc(Nc3ccc(N4CCN(C)CC4)cc3)ncc2Cl)c1", "%", 14),
    ("COc1ccccc1CN[C@H]1C2CCN(CC2)[C@H]1C(c1ccccc1)c1ccccc1", "%", 0),
    ("CC(C)OC(=O)N1CCC(Oc2ncnc3c2cnn3-c2ccc(S(C)(=O)=O)cc2F)CC1", "%", 7),
    ("C=CC(=O)Nc1ccc2[nH]c(=O)n(C3CCN(Cc4ccc(-c5nc6cc[nH]c(=O)c6cc5-c5ccccc5)cc4)CC3)c2c1", "%", 14),
    ("CC(C)NC(=O)N1CC[C@H](NC2=Nc3cc(F)ccc3N(CC(F)F)c3ccc(Cl)cc32)C1", "%", 9),
    ("C=CC(=O)Nc1cccc(Oc2nc(Nc3ccc(N4CCN(C)CC4)cc3OC)ncc2Cl)c1", "%", 13),
    ("CC(C)(C)NC[C@H](O)COc1nsnc1N1CCOCC1", "%", 8),
    ("Cc1c[nH]c2nccc(Oc3c(F)cc(Nc4cc(Cl)nc(N)n4)cc3F)c12", "%", 5),
    ("Cc1cccc(CN2CCN(C(c3ccccc3)c3ccc(Cl)cc3)CC2)c1.Cl.Cl (configuration not stated)", "%", 8),
    ("Cc1ccc2c(c1)c1c(n2CCc2ccc(C)nc2)CCN(C)C1 [LATREPIRDINE]", "%", 16),
    ("CCOC(=O)Nc1cc(-c2ccc(C)c(NS(C)(=O)=O)c2)nn2c(C)nnc12", "%", 11),
    ("C[C@]12CC[C@@H]3c4ccc(O)cc4CC[C@H]3[C@@H]1CC[C@@H]2O", "%", 5),
    ("CCCSc1nc(N[C@@H]2C[C@H]2c2ccc(F)c(F)c2)c2nnn([C@@H]3C[C@H](OCCO)[C@@H](O)[C@H]3O)c2n1", "%", 5),
    ("CC(C)Oc1ccccc1C(=O)Nc1ccccc1C(=O)Nc1cccc(S(=O)(=O)C(F)(F)F)c1", "%", 5),
    ("CC(C)c1noc(N2CCC(COc3ccc(-c4ccc(S(C)(=O)=O)cc4)nc3)CC2)n1", "%", 2),
    ("CC1=C(C(=O)Nc2cc3cn[nH]c3cc2F)C(c2ccc(C(F)(F)F)cc2)CC(=O)N1 (configuration not stated)", "%", 10),
    ("COc1cc2ncn(-c3cc(OCc4ccccc4C(F)(F)F)c(C(N)=O)s3)c2cc1OC [GW843682X]", "%", 10),
    ("CCc1ccc(OCc2ccccc2C(=O)Nc2ccc3nc(C)cc(N)c3c2)cc1.Cl", "%", 16),
    ("CNC(=O)Nc1ccc2c(c1)[C@@]1(CC2)OC(=O)N(CC(=O)N(Cc2ccc(F)cc2)[C@@H](C)C(F)(F)F)C1=O", "%", 11),
    ("COc1ccc(-c2ccc3ncc4c(c3c2)n(-c2ccc(N3CCNCC3)c(C(F)(F)F)c2)c(=O)n4C)cn1.O=C(O)/C=C\\C(=O)O", "%", 17),
]
